Test system: Two-Spotted Spider Mite
Test: Protocol 1 Two-Spotted Spider Mite (MTA) foliar spray test
Format: in vivo, Tetranychus urticae
Conditions: Protocol 1, DOSE 300; percentage of mites killed 1-day post-treatment
quantity_name: MTA (%)

>>> numeric_result("Cc1nc(-c2ccc(Cl)cc2)nn(CC(F)(F)F)c1=O")
0
>>> numeric_result("CN1CC(=O)N(CC(F)(F)F)N=C1c1ccccc1")
0
>>> numeric_result("Cc1ccc(-c2ncc(=O)n(CC(F)(F)F)n2)cc1")
0
>>> numeric_result("C=CCn1nc(-c2ccc(Cl)cc2)ncc1=O")
100
>>> numeric_result("O=C1CNC(c2ccc(Cl)cc2)=NN1c1ccccc1")
90
>>> numeric_result("O=c1cnc(-c2ccc(Cl)cc2)nn1CC(F)(F)F")
0
>>> numeric_result("O=C1CNC(c2ccccc2)=NN1CC(F)(F)F")
75
>>> numeric_result("Cn1nc(-c2ccc(Cl)cc2)ncc1=O")
100
>>> numeric_result("CCn1nc(-c2ccc(Cl)cc2)ncc1=O")
100
>>> numeric_result("Cc1ccc(C2=NN(CC(F)(F)F)C(=O)CN2)cc1")
0

* * *

Tested on: Two-Spotted Spider Mite
Test: Protocol 1 Two-Spotted Spider Mite (MTA) foliar spray test
Type: in vivo, Tetranychus urticae
Settings: Protocol 1, DOSE 300; percentage of mites killed 1-day post-treatment
Experimental: A test solution containing 1250 parts per million (ppm) was prepared by dissolving the test compound in […] of a second solvent (acetone: water, 1:1) to give an acetone:water: methanol system of 50: 40:10. The enclosed spraying chamber consisted of a single spray nozzle mounted on a boom moving at a fixed speed and distance over stationary targets. […]
# Lookup of reported MTA keyed by entry
quantity_name: MTA (%)

>>> numeric_result("COC1NC(c2ccc(Cl)cc2)=NN(CC(F)(F)F)C1=O (stereo not drawn) [Compound 26]")
0
>>> numeric_result("O=C1CNC(c2cccc(Cl)c2)=NN1CC(F)(F)F [Compound 37]")
75
>>> numeric_result("Cn1nc(-c2ccccc2)ncc1=O [compound 242]")
100
>>> numeric_result("O=c1cnc(-c2cccc(Cl)c2)nn1CC(F)(F)F [Compound 245]")
100
>>> numeric_result("O=c1cnc(-c2ccc(Cl)cc2)nn1Cc1ccccc1 [Compound 240]")
100
>>> numeric_result("CCCCCn1nc(-c2ccc(Cl)cc2)ncc1=O [Compound 234]")
100
>>> numeric_result("CN1N=C(c2ccc(Cl)cc2)NCC1=O [Compound 27]")
0
>>> numeric_result("CC(C)(C)n1nc(-c2ccc(Cl)cc2)ncc1=O [Compound 241]")
100
>>> numeric_result("CC(=O)N1CC(=O)N(CC(F)(F)F)N=C1c1ccc(Cl)cc1 [Compound 40]")
90

* * *

System: Mexican Bean Beetle
Experiment: Protocol 1 Mexican Bean Beetle (BB) foliar spray test
Format: in vivo, Epilachna verivestis
Conditions: Protocol 1, DOSE 150; control rated after 48 hours (100 = all larvae dead)
quantity_name: BB

>>> numeric_result("O=c1cnc(-c2cc(Cl)cc(Cl)c2)nn1CC(F)(F)F")
0
>>> numeric_result("Cc1c(Cl)cc(-c2ncc(=O)n(CC(F)(F)F)n2)cc1Cl")
0
>>> numeric_result("O=C1CNC(c2cc(Cl)cc(Cl)c2)=NN1CC(F)(F)F")
0
>>> numeric_result("COc1cccc(-c2ncc(=O)n(CC(F)(F)F)n2)c1")
100
>>> numeric_result("CCCSC1NC(c2ccc(Cl)cc2)=NN(CC(F)(F)F)C1=O (centres unmarked)")
100
